B1: KCNA1 (parent)
chain: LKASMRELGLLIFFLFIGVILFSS

variants of: B1; assay: protein stability index of a GFP-peptide fusion (GPS, HEK-293T) (PSI 1-6); higher = more stable; conditions: c terminus: a fixed tail appended;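 note: lentivirally expressed fusions sorted by FACS into six bins by GFP to DsRed ratio, PSI derived from sequencing read proportions per bin multiplied by bin number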
Kindly note that classification relies on protein stability index with these boundaries: low bin = under 2, mid bin = from 2 up to 3, high bin = 3 and over

{"variant.label": "F22E", "group": "mid bin"}
{"variant.label": "L21D", "group": "high bin"}
{"variant.label": "F22D", "group": "mid bin"}
{"variant.label": "I20E", "group": "mid bin"}
{"variant.label": "F14G", "group": "high bin"}
{"variant.label": "L11C", "group": "high bin"}
{"variant.label": "E7G", "group": "mid bin"}
{"variant.label": "I12E", "group": "high bin"}
{"variant.label": "A3G", "group": "low bin"}
{"variant.label": "F14T", "group": "mid bin"}
{"variant.label": "V19I", "group": "mid bin"}
{"variant.label": "V19G", "group": "mid bin"}
{"variant.label": "S23I", "group": "low bin"}
{"variant.label": "G18Y", "group": "high bin"}
{"variant.label": "S24C", "group": "low bin"}
{"variant.label": "L11W", "group": "mid bin"}
{"variant.label": "A3Q", "group": "mid bin"}
{"variant.label": "S23T", "group": "low bin"}
